assay: physchem; details: pH 9.5
Property measured: solubility

{"Compound": "C[C@H]1C=C2C=C[C@H](C)[C@H](CC[C@@H](O)C[C@@H](O)CC(=O)O)C2[C@@H](O)C1 (stereo partly shown)", "Property measured": "solubility", "Result": "~200 mM"}
